target: PTP1B (Homo sapiens, UniProt P18031); assay: PTP1B-catalyzed hydrolysis of p-nitrophenyl phosphate (pNPP), in vitro kinetic assay; assay type: biochemical; conditions: major product of terpene synthase A0A0C9VSL7; error 95 CI; read-out: IC50 (PTP1B), estimated
Sequence (P18031 1-321): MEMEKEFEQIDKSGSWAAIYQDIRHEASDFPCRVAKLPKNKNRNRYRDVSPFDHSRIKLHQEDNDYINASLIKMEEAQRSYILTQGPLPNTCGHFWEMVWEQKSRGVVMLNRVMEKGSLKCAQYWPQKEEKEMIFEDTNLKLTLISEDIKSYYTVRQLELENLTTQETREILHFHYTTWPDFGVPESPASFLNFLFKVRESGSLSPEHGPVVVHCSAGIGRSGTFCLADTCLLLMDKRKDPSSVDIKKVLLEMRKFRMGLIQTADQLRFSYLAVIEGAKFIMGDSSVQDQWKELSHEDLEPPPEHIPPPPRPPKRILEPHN
pIC50: −log10 of the molar value.
QUANTITY: pIC50

[[record]]
compound = "CC1=C[C@@H]2C(=C(C)CC[C@H]2C(C)C)CC1 [(+)-8-cadinene]"
test_target = "PTP1B (Homo sapiens, UniProt P18031)"
data_value = 3.78


---

biological target: UniProt:P18031; test: PTP1B-catalyzed hydrolysis of p-nitrophenyl phosphate (pNPP), in vitro kinetic assay; assay type: biochemical; conditions: PTP1B1-321; fit of mixed model; read-out: Ki,c, mixed model
QUANTITY: Ki (µM)

[[record]]
compound_string = "CC1=C[C@H]2[C@@H](CC1)[C@](C)(O)CCCC2(C)C"
data_value = 161

